Sourced from ChEMBL document CHEMBL1821573

Molecular target: Trypanothione reductase (Trypanosoma cruzi, UniProt P28593)
Sequence (P28593 whole entry): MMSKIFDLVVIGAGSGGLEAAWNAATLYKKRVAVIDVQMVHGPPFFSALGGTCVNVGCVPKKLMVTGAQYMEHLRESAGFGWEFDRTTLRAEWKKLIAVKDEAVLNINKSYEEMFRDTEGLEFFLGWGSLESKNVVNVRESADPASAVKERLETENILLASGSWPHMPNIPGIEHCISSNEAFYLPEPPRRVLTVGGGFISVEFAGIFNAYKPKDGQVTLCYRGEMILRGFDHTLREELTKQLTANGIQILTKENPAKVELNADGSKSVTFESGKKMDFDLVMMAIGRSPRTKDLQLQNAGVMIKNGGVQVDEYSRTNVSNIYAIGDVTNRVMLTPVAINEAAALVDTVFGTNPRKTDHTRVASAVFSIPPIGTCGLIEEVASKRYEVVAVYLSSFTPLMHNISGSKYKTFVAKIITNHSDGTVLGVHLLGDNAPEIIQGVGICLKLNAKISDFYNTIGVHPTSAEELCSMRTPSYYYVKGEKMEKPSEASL
pKi: −log10 of the molar value.
pKi below 5 gives rule not met; pKi at or above it gives rule met.

>>> classname("CCn1c(-c2ccccc2)cnc1SCC(=O)Nc1ccc(C2CCCCC2)cc1")
"rule met"

Now take the following molecule into account.
Does pKi meet or surpass 5 for O=C(CNc1ccc(S(=O)(=O)N2CCCCC2)cc1)CSc1ncc(-c2ccc(Cl)cc2)n1-c1ccccc1 ?
rule not met

---

Biological target: Trypanothione reductase (Trypanosoma cruzi, UniProt P28593)
Each record here notes measured Ki.

// Ki lookup, key: Cc1ccc2[nH]c(Cc3ccc(NC(=O)CCc4nc5ccccc5[nH]4)cc3)nc2c1
13.1 µM

Could you do the same for N#Cc1c(NC(=O)CSc2nc(-c3ccc(Cl)cc3)c[nH]2)sc2c1CCCC2 , please?
9.3 µM

Try Cc1sc2ncn3c(SCC(=O)Nc4sc5c(c4C#N)CCCC5)nnc3c2c1C next.
11.8 µM

Thanks! And CCn1c(-c2ccccc2)cnc1SCC(=O)Nc1sc2c(c1C#N)CCCC2 ?
13.1 µM
